# Experimental Target: human TGFßRII (antigen of the Octet experiments) (human, UniProt P37173 23-166)
# Sequence (P37173 23-166): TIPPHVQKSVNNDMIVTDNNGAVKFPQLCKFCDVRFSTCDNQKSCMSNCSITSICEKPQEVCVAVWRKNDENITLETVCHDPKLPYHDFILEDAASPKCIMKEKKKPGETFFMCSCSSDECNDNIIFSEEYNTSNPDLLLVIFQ
# Assay Text: BLI (Octet)
In this section we review reported Kd values for a set of binders.

{"columns": ["Binder", "Quantity Unit", "Kd"],
 "data": [
  ["H1 L1.8 XENP34571 (antibody, V domains shown) VH: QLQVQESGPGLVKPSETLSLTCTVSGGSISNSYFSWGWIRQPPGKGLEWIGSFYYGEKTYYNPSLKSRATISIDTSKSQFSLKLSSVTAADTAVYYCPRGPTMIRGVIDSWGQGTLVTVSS VL: EIVLTQSPATLSLSPGERATLSCRASQSVKSYLAWYQQKPGQAPRLLIYDASNRATGIPARFSGSGSGTDFTLTISSLEPEDFAVYYCQQRSNWPPTFGQGTKVEIK", "pM", 1110],
  ["H1 L1.31 XENP34594 (antibody, V domains shown) VH: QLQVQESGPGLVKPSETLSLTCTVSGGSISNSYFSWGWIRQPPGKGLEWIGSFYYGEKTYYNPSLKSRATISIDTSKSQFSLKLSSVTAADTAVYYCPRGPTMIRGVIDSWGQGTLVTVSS VL: EIVLTQSPATLSLSPGERATLSCRASQSVRSYLAWYQQKPGQAPRLLIYDASNRATGIPARFSGSGSGTDFTLTISRLEPEDFAVYYCQQRSNWPPTFGQGTKVEIK", "pM", 706]
]}
